FYI, the data here is from the supplement of paper PMC7411054.

- System: WPMY1-TUBA1B-RELA
- Test details: lowest phenotypically active concentration; higher = less potent
- Condition set: treatment time: 24 h
For each entry below, report its lowest phenotypically active concentration value.
Answer format: numeric, µM implied, no suffix.

Prompt: Determine its reported lowest phenotypically active concentration: COc1cc2c(NC3CCN(C(C)C)CC3)nc(N3CCC(F)(F)CC3)nc2cc1OCCCN1CCCC1
Completion: 1

Prompt: Determine its reported lowest phenotypically active concentration: Cc1ccc(NC2=CC(=O)c3sc(C)nc3C2=O)cc1 [Ryuvidine]
Completion: 1

Prompt: Determine its reported lowest phenotypically active concentration: COc1cc(N2CCN(C)CC2)ccc1Nc1nccc(-c2cn(C)c3cnccc23)n1
Completion: 1
